biological target: α2 adrenoceptors (striatum, α2A and α2C); test: [3H]RX821002 binding; set-up: species or system sheep; settings: read-out: KDB1; striatum; vs [3H]RX821002; two-state dimer model, first protomer
Counter-ions that a name gives are not always drawn.
Attribute: pKd
Note on pKd: it is the negative log10 of concentration, concentration in mol/L.

Past entries and their recorded results:
- Compound: "NCCc1ccc(O)c(O)c1 [DA, Dopamine hydrochloride]"
  pKd: 8.22
- Compound: "Clc1cccc(Cl)c1N=C1NCCN1 [Clonidine, clonidine hydrochloride]"
  pKd: 10.44

For reference, reported pKd for CCCN(C/C=C/I)C1CCc2ccc(O)cc2C1 (stereo not drawn) [7-OH-PIPAT, 7-OH-PIPAT maleate] stands at 7.29

Value source: paper PMC6143434
